biological target: BRD4 (BRD4A) (Homo sapiens, UniProt O60885); construct: purchased in-house DSF kinase panel (SGC-style construct names; the trailing letter is the construct ID); assay: DSF Tm panel; format: binding; conditions: 10 μM compound
We label by threshold. Values of ΔTm at 10 µM strictly beneath 0.7 °C are class 1. Values of 0.7 °C and up are class 0.

Examples with answers:
Ask: Check if ΔTm at 10 µM falls below 0.7 °C for C[C@H](NC(=O)Nc1ccc2cc1OCCOCCNc1ccn3ncc-2c3n1)c1ccccc1 [compound 34] .
Result: class 1

Ask: Check if ΔTm at 10 µM falls below 0.7 °C for O=C(NCc1cccc(Cl)c1)Nc1ccc2cc1OCCOCCNc1ccn3ncc-2c3n1 [compound 18] .
Result: class 0

Ask: Check if ΔTm at 10 µM falls below 0.7 °C for Cc1cc(Cl)ccc1CNC(=O)Nc1ccc2cc1OCCOCCNc1ccn3ncc-2c3n1 [compound 23] .
Result: class 0

Ask: Check if ΔTm at 10 µM falls below 0.7 °C for CN1CCN(C(=O)Nc2ccc3cc2OCCOCCNc2ccn4ncc-3c4n2)CC1 [compound 35] .
Result: class 1

Next:
Ask: Check if ΔTm at 10 µM falls below 0.7 °C for Cc1ccc(F)cc1CNC(=O)Nc1ccc2cc1OCCOCCNc1ccn3ncc-2c3n1 [compound 26] .
Result: class 1

Ask: Check if ΔTm at 10 µM falls below 0.7 °C for O=C(NCc1ccc(Cl)cc1F)Nc1ccc2cc1OCCOCCNc1ccn3ncc-2c3n1 [compound 21] .
Result: class 0

Ask: Check if ΔTm at 10 µM falls below 0.7 °C for COc1ccccc1CNC(=O)Nc1ccc2cc1OCCOCCNc1ccn3ncc-2c3n1 [compound 29] .
Result: class 1

Ask: Check if ΔTm at 10 µM falls below 0.7 °C for COc1ccc(CNC(=O)Nc2ccc3cc2OCCOCCNc2ccn4ncc-3c4n2)cc1 [compound 31] .
Result: class 1

---

target: NEK1A (Homo sapiens, UniProt Q96PY6); construct: purchased in-house DSF kinase panel (SGC-style construct names; the trailing letter is the construct ID); assay: DSF Tm panel; assay type: binding; conditions: 10 μM compound
Sequence (Q96PY6 1-328): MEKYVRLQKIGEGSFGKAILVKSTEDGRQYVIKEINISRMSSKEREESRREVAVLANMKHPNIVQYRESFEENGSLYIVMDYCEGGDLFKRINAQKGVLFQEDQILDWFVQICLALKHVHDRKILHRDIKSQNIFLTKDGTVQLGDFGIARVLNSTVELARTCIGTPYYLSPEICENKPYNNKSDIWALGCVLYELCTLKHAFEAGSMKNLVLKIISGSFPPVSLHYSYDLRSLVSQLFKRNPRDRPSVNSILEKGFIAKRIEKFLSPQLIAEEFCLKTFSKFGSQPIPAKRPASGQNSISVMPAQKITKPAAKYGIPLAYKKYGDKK
observable: ΔTm at 10 µM (°C)
The reply should contain only the number, in °C.

Ask: Give NEK1A (Homo sapiens, UniProt Q96PY6) ΔTm at 10 µM for the following compound: `O=C(NCc1ccc(C(F)(F)F)cc1)Nc1ccc2cc1OCCOCCNc1ccn3ncc-2c3n1`
Result: 0

Next:
Ask: Give NEK1A (Homo sapiens, UniProt Q96PY6) ΔTm at 10 µM for the following compound: `O=C(NCc1ccccc1)Nc1ccc2cc1OCCOCCNc1ccn3ncc-2c3n1`
Result: 0.1

Ask: Give NEK1A (Homo sapiens, UniProt Q96PY6) ΔTm at 10 µM for the following compound: `O=C(NCc1ccc(Cl)cc1F)Nc1ccc2cc1OCCOCCNc1ccn3ncc-2c3n1`
Result: 0.7

Ask: Give NEK1A (Homo sapiens, UniProt Q96PY6) ΔTm at 10 µM for the following compound: `O=C(NCc1ccccc1C(F)(F)F)Nc1ccc2cc1OCCOCCNc1ccn3ncc-2c3n1`
Result: -0.4

Ask: Give NEK1A (Homo sapiens, UniProt Q96PY6) ΔTm at 10 µM for the following compound: `COc1ccc(CNC(=O)Nc2ccc3cc2OCCOCCNc2ccn4ncc-3c4n2)cc1`
Result: -0.4

Ask: Give NEK1A (Homo sapiens, UniProt Q96PY6) ΔTm at 10 µM for the following compound: `COc1cc(CNC(=O)Nc2ccc3cc2OCCOCCNc2ccn4ncc-3c4n2)ccc1F`
Result: -0.1

Ask: Give NEK1A (Homo sapiens, UniProt Q96PY6) ΔTm at 10 µM for the following compound: `CN1CCN(C(=O)Nc2ccc3cc2OCCOCCNc2ccn4ncc-3c4n2)CC1`
Result: 0.4

Ask: Give NEK1A (Homo sapiens, UniProt Q96PY6) ΔTm at 10 µM for the following compound: `O=C(NCc1cccc(Cl)c1)Nc1ccc2cc1OCCOCCNc1ccn3ncc-2c3n1`
Result: 0.2

Ask: Give NEK1A (Homo sapiens, UniProt Q96PY6) ΔTm at 10 µM for the following compound: `Cc1ccc(F)cc1CNC(=O)Nc1ccc2cc1OCCOCCNc1ccn3ncc-2c3n1`
Result: -0.4

Ask: Give NEK1A (Homo sapiens, UniProt Q96PY6) ΔTm at 10 µM for the following compound: `O=C(NCc1ccccc1Cl)Nc1ccc2cc1OCCOCCNc1ccn3ncc-2c3n1`
Result: 0.2

---

Below is a list of entries, each paired with its recorded ΔTm at 10 µM value.
target: CASKA (Homo sapiens, UniProt O14936); construct: purchased in-house DSF kinase panel (SGC-style construct names; the trailing letter is the construct ID); assay: DSF Tm panel; format: binding; conditions: 10 μM compound
Sequence (O14936 12-276): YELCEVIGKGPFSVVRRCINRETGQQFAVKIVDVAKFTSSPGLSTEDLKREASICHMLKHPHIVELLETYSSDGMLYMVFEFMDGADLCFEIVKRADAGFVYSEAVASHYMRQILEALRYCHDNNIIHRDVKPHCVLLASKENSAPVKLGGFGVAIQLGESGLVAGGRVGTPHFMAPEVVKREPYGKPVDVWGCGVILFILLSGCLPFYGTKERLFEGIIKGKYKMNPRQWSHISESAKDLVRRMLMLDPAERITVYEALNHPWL
The reply should contain only the number, in °C.

These recorded examples may help you get a feel for the data.
Ask: Answer with reported ΔTm at 10 µM of O=C(NCc1ccc(C(F)(F)F)cc1)Nc1ccc2cc1OCCOCCNc1ccn3ncc-2c3n1 [compound 28]
Result: 0.5

Ask: Answer with reported ΔTm at 10 µM of C[C@H](NC(=O)Nc1ccc2cc1OCCOCCNc1ccn3ncc-2c3n1)c1ccccc1 [compound 34]
Result: 1

Ask: Answer with reported ΔTm at 10 µM of O=C(NCc1ccc(Cl)cc1Cl)Nc1ccc2cc1OCCOCCNc1ccn3ncc-2c3n1 [compound 20]
Result: 1.7

Ask: Answer with reported ΔTm at 10 µM of O=C(NCc1ccccc1Cl)Nc1ccc2cc1OCCOCCNc1ccn3ncc-2c3n1 [compound 17]
Result: 2.8

Ask: Answer with reported ΔTm at 10 µM of O=C(NCc1ccccc1)Nc1ccc2cc1OCCOCCNc1ccn3ncc-2c3n1 [compound 16]
Result: 2.2

Next:
Ask: Answer with reported ΔTm at 10 µM of O=C(NCc1ccc(Cl)cc1)Nc1ccc2cc1OCCOCCNc1ccn3ncc-2c3n1 [compound 19]
Result: 2.2

---

target: MAPK14A (Homo sapiens, UniProt Q16539); construct: purchased in-house DSF kinase panel (SGC-style construct names; the trailing letter is the construct ID); experiment: DSF Tm panel; assay type: binding; settings: 10 μM compound
Sequence (Q16539 whole entry): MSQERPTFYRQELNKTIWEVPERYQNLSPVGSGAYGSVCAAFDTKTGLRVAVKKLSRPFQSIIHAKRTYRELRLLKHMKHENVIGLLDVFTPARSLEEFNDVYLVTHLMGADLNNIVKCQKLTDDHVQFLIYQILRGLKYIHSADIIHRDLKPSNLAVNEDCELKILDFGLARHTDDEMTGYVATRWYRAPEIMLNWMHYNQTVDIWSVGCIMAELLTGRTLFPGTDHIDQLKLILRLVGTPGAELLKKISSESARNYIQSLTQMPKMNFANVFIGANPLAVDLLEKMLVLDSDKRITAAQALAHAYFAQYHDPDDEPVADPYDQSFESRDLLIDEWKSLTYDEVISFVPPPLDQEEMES
observable: ΔTm at 10 µM (°C)
The reply should contain only the number, in °C.

Ask: Answer with reported ΔTm at 10 µM of `O=C(NCc1ccccc1Cl)Nc1ccc2cc1OCCOCCNc1ccn3ncc-2c3n1`
Result: 0

Ask: Answer with reported ΔTm at 10 µM of `O=C(NCc1ccc(Cl)cc1)Nc1ccc2cc1OCCOCCNc1ccn3ncc-2c3n1`
Result: 0.1

---

Below is a list of entries, each paired with its recorded ΔTm at 10 µM value.
target: BRPF1B (Homo sapiens); construct: purchased in-house DSF kinase panel (SGC-style construct names; the trailing letter is the construct ID); assay: DSF Tm panel; type: binding; conditions: 10 μM compound
Sequence (P55201 whole entry): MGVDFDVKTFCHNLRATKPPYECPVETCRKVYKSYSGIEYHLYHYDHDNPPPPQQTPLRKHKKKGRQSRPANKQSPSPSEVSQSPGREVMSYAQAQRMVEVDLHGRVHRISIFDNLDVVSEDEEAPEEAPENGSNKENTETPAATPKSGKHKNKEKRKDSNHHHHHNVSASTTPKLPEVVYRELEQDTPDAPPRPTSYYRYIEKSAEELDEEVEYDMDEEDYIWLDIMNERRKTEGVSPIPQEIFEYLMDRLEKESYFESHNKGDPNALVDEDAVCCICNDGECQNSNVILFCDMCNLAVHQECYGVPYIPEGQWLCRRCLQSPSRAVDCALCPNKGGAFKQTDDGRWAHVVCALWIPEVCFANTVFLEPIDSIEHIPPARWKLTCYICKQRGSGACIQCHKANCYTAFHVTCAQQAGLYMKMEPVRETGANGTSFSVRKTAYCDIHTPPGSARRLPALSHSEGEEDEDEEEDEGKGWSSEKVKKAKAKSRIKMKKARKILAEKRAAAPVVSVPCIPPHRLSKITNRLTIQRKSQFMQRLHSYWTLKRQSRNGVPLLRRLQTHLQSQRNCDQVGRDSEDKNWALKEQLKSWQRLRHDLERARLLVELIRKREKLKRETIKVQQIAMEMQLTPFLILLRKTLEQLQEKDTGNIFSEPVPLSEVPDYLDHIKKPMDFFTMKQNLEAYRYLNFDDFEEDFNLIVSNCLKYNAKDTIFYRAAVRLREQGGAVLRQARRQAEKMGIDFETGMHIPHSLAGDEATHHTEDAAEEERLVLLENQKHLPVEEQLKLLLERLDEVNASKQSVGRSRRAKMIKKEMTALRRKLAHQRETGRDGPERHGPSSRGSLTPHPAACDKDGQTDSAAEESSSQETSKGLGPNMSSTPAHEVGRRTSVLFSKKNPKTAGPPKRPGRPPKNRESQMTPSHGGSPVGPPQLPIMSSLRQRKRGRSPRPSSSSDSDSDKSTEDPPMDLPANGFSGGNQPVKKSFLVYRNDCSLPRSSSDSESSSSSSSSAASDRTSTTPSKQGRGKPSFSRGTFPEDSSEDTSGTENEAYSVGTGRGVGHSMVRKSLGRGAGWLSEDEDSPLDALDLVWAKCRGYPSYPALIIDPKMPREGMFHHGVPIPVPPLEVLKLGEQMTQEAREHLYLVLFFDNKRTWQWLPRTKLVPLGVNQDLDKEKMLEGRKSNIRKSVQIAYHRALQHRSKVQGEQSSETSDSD
The reply should contain only the number, in °C.

These recorded examples may help you get a feel for the data.
Ask: Answer with reported ΔTm at 10 µM of `O=C(NCc1ccc(C(F)(F)F)cc1)Nc1ccc2cc1OCCOCCNc1ccn3ncc-2c3n1`
Result: 2.2

Ask: Answer with reported ΔTm at 10 µM of `C[C@H](NC(=O)Nc1ccc2cc1OCCOCCNc1ccn3ncc-2c3n1)c1ccccc1`
Result: 0.5

Ask: Answer with reported ΔTm at 10 µM of `COc1ccc(CNC(=O)Nc2ccc3cc2OCCOCCNc2ccn4ncc-3c4n2)cc1`
Result: 1

Ask: Answer with reported ΔTm at 10 µM of `Cc1ccc(F)cc1CNC(=O)Nc1ccc2cc1OCCOCCNc1ccn3ncc-2c3n1`
Result: 1

Ask: Answer with reported ΔTm at 10 µM of `COc1ccc(CNC(=O)Nc2ccc3cc2OCCOCCNc2ccn4ncc-3c4n2)cc1F`
Result: 1.5

Next:
Ask: Answer with reported ΔTm at 10 µM of `Cc1cc(Br)ccc1CNC(=O)Nc1ccc2cc1OCCOCCNc1ccn3ncc-2c3n1`
Result: 1.6

Ask: Answer with reported ΔTm at 10 µM of `COc1cccc(CNC(=O)Nc2ccc3cc2OCCOCCNc2ccn4ncc-3c4n2)c1`
Result: 0.2

---

target: SRPK1A (Homo sapiens, UniProt Q96SB4); construct: purchased in-house DSF kinase panel (SGC-style construct names; the trailing letter is the construct ID); experiment: DSF Tm panel; type: binding; conditions: 10 μM compound
Sequence (Q96SB4 80-653): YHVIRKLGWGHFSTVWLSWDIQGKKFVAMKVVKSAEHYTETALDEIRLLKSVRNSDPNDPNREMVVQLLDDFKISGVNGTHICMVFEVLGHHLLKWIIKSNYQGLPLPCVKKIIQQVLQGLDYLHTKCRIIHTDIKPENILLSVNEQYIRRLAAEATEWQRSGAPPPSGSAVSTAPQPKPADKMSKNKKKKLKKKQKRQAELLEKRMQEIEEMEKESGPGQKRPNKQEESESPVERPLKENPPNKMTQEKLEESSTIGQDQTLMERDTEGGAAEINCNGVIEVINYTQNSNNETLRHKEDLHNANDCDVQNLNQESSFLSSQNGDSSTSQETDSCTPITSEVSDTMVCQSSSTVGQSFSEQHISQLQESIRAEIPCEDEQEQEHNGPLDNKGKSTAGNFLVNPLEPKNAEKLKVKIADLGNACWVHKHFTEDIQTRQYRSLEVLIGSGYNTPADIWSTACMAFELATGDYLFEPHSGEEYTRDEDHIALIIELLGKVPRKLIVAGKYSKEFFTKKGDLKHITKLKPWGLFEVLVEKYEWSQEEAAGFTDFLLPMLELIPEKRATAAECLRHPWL
observable: ΔTm at 10 µM (°C)
The reply should contain only the number, in °C.

These recorded examples may help you get a feel for the data.
Ask: Answer with reported ΔTm at 10 µM of `COc1cc(CNC(=O)Nc2ccc3cc2OCCOCCNc2ccn4ncc-3c4n2)ccc1F`
Result: 0

Ask: Answer with reported ΔTm at 10 µM of `O=C(NCc1ccccc1Cl)Nc1ccc2cc1OCCOCCNc1ccn3ncc-2c3n1`
Result: 0

Ask: Answer with reported ΔTm at 10 µM of `COc1ccccc1CNC(=O)Nc1ccc2cc1OCCOCCNc1ccn3ncc-2c3n1`
Result: 0.2

Ask: Answer with reported ΔTm at 10 µM of `Cc1cc(Br)ccc1CNC(=O)Nc1ccc2cc1OCCOCCNc1ccn3ncc-2c3n1`
Result: -0.2

Ask: Answer with reported ΔTm at 10 µM of `CN1CCN(C(=O)Nc2ccc3cc2OCCOCCNc2ccn4ncc-3c4n2)CC1`
Result: 0.2

Next:
Ask: Answer with reported ΔTm at 10 µM of `O=C(NCc1cccc(Cl)c1)Nc1ccc2cc1OCCOCCNc1ccn3ncc-2c3n1`
Result: -0.3

Ask: Answer with reported ΔTm at 10 µM of `O=C(NCc1ccccc1C(F)(F)F)Nc1ccc2cc1OCCOCCNc1ccn3ncc-2c3n1`
Result: -0.1
